experiment: in vivo; details: ICR (CD-1), mouse, 15 mg/kg
quantity_kind: Tmax (min)
Express it in min; write the number only.

Report Tmax for "CC(C)[C@H](N)C(=O)OC[C@H]1O[C@@H](n2ccc(NO)nc2=O)[C@H](O)[C@@H]1O" 4.8

----------
assay: clinical; conditions: human, in vivo, po, 400 mg, tmax (median)
quantity_kind: Tmax (h)
The figure you give is taken to be in h; do not add the unit.

Look up and state reported Tmax for O=c1nc(NO)ccn1C1OC(CO)C(O)C1O (stereo not shown) 1

----------
experiment: clinical; conditions: human, in vivo, po, 400 mg, AUCinf
quantity_kind: AUC(0-inf) (ng·h/mL)
Value expressed in ng·h/mL; do not type the unit.

// Input: O=c1nc(NO)ccn1C1OC(CO)C(O)C1O (stereo not shown) . Output its AUC(0-inf) only. 4010

Hello, the source for this data is patent US20250064844A1, in case you need it.
